Biological target: UniProt:Q15910
Sequence (Q15910 whole entry): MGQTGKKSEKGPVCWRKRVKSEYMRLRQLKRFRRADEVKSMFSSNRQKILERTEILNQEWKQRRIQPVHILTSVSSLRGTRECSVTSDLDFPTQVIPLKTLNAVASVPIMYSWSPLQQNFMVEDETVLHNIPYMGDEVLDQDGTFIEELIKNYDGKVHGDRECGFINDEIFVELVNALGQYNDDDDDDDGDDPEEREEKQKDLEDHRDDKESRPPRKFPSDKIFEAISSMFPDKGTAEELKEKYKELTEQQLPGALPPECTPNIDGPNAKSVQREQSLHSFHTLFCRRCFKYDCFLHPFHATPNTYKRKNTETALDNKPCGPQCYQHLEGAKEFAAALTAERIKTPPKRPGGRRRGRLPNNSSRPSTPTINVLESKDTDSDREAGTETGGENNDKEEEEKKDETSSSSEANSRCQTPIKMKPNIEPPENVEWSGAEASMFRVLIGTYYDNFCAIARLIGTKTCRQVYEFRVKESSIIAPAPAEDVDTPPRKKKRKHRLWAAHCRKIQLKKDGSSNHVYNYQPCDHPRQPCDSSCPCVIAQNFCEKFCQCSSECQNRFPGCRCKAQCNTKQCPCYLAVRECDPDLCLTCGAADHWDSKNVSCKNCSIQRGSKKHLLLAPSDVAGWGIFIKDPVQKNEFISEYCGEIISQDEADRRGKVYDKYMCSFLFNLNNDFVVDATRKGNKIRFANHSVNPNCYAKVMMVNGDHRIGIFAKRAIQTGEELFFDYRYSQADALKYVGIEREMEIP
Readout: pIC50
Scale: pIC50 equals -log10([C]), with [C] in mol/L.

Challenge: Hello, I am looking for reported pIC50 with UniProt:Q15910 for CCCc1cc(C)[nH]c(=O)c1CNC(=O)c1cc(-c2ccc(N3CCN(C(C)C)CC3)nc2)cc2c1cnn2C(C)C . Could you help?
Response given: 6.91

---

Biological target: Histone-lysine N-methyltransferase KMT5B (Homo sapiens, UniProt Q4FZB7)
Sequence (Q4FZB7 whole entry): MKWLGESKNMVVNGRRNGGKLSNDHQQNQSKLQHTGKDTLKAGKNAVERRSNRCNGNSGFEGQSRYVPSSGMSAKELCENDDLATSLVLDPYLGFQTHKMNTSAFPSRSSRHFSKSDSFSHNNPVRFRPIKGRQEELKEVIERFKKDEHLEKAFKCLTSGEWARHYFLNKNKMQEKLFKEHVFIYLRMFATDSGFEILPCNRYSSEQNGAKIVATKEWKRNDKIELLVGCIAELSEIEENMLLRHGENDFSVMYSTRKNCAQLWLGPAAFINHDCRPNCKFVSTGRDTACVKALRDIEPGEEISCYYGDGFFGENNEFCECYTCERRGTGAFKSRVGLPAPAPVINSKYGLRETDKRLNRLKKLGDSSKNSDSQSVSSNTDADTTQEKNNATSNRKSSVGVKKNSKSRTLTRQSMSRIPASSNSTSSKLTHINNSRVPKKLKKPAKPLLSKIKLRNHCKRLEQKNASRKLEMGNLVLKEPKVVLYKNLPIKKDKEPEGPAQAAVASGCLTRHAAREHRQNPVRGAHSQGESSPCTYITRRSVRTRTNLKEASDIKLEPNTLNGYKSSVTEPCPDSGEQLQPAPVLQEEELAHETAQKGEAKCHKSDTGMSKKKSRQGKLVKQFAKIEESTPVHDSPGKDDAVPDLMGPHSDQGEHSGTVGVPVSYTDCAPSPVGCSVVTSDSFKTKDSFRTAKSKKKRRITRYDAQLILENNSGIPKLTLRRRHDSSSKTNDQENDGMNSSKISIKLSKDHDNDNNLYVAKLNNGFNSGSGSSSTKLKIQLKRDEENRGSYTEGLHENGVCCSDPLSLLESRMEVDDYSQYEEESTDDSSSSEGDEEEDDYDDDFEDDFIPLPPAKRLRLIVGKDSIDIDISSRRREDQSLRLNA
Readout: IC50

Challenge: Hello, I am looking for reported IC50 with Histone-lysine N-methyltransferase KMT5B (Homo sapiens, UniProt Q4FZB7) for CCCc1cc(C)[nH]c(=O)c1CNC(=O)c1cc(-c2ccc(N3CCN(C(C)C)CC3)nc2)cc2c1cnn2C(C)C . Could you help?
Response given: > 100 µM
